experiment: inhibitors of VEEV TC-83 cytopathic effect, confirmation, Vero cells (AID 588727); conditions: VEEV TC-83 cytopathic effect inhibition, at 20 µM; stronger effect = higher value unless noted
Hit rate of the full screen: of about 350,000 compounds, about 450 (0.13%) were called active. A selection follows. Results with a measured potency or affinity are listed apart.
Class label 1: inhibition at least 1%. Class label 0: inhibition below 1%.

>>> print(df.to_string())
                                   compound    class
0         CCCc1nc2c(=O)n(C)c(=O)[nH]c2n1CCC  label 0
1  Cc1cc(/N=C/C=C2/N(C)c3ccccc3C2(C)C)n(CCC#N)n1  label 1
2  O=c1c2ccccc2nc(-c2ccco2)n1-c1nc2ccccc2s1  label 1
3    Cc1c(C)n(CCCN(C)C)c2ncnc(Nc3ccccc3)c12  label 1
4         CCc1c(C)sc(NC(=O)c2cccs2)c1C(N)=O  label 0
5  CCOc1ccc(N2CC(C(=O)Nc3cccc(C(=O)NC4CC4)c3)CC2=O)cc1 (stereo unspecified)  label 1

---

Items are presented alongside their recorded inhibition.
assay: inhibitors of VEEV TC-83 cytopathic effect, confirmation, Vero cells (AID 588727); details: VEEV TC-83 cytopathic effect inhibition, at 20 µM; stronger effect = higher value unless noted
Among all 350,000 compounds or so, about 450 (0.13%) were called active. These entries were drawn from the full list. Results with a measured potency or affinity are listed apart.
Quantity kind: inhibition

In [3]: df
Out[3]:
                                   molecule  quantity_kind          measured
0  CCCCc1nc2sc3c(c2c(=O)n1NC(=O)c1ccco1)CC(C)(C)OC3     inhibition  0.57% (inactive)
1  COc1ccc(N2C(=O)CC(N3CCN(c4ccc(Cl)cc4)CC3)C2=O)cc1 (stereo not given)     inhibition  0.34% (inactive)
2      O=C(CCc1ccccc1)NNC(=S)NC(=O)c1ccccc1     inhibition  8.58% (inactive)
3  CCN1CCN(c2cc(C)c3cc(NC(=S)N4CCN(c5ccc(F)cc5)CC4)ccc3n2)CC1     inhibition   0.9% (inactive)
4  Cc1ccc(C)c(S(=O)(=O)N/N=C/c2ccc(N3CCOCC3)cc2)c1     inhibition    13% (inactive)
5  COc1ccc(C2/C(=C(\O)c3cc(C)ccc3C)C(=O)C(=O)N2CCN(C)C)cc1OC (stereo not given)     inhibition  0.58% (inactive)
6  CCCCn1c(=O)[nH]c(=O)c2c1nc(CN(C)Cc1cccc(OC)c1OC)n2CCC     inhibition  6.28% (inactive)
7   Oc1ccc(N=Nc2n[nH]c(-c3ccc(Cl)cc3)n2)cc1     inhibition  1.16% (inactive)
8  O=C(NC(=S)NNC(=O)c1cc2ccccc2cc1O)c1ccco1     inhibition  35.8% (inactive)
9     COc1ccc(C(=O)NNC(=S)NC(=O)c2ccco2)cc1     inhibition  3.21% (inactive)

---

assay: inhibitors of VEEV TC-83 cytopathic effect, confirmation, Vero cells (AID 588727); settings: VEEV TC-83 cytopathic effect inhibition, measured here: 10K pilot screen inhibition, at 20 µM, stronger effect = higher value
Hit rate of the full screen: of about 350,000 compounds, about 450 (0.13%) were called active. Not all results are given here. Measured potencies and affinities stand elsewhere.
Quantity kind: inhibition (%)

>>> print(df.to_string())
                                    compound  quantity_kind  measured
 0  CCOC(=O)C1=C(NC(=S)NC(=O)c2ccccc2)c2ccccc2CC1(C)CC (stereo not drawn)     inhibition      20.8
 1  CNc1ccc(Br)cc(C(=O)/C=C/c2ccc(OC)cc2OC)c1=O     inhibition      6.96
 2  CC(C)Oc1ccc(Cl)cc1Nc1nc(NCCO)nc(N2CCCC2)n1     inhibition      4.53
 3  Cc1ccccc1NS(=O)(=O)c1nnc(NC(=O)c2ccccc2F)s1     inhibition      3.31
 4  N=C1C(c2nc(-c3ccc(F)cc3)cs2)=C(O)CN1CCCN1CCOCC1     inhibition      0.31
 5  Cc1cc(C)cc(NC(=O)CSc2nc3ccccc3nc2N2CCCC2)c1     inhibition     0.985
 6  CCn1c(SCC(=O)N/N=C/c2ccc(OC)c(OC)c2)nc2ccccc21     inhibition      2.22
 7         O=c1oc(C2(O)CCCCC2)cc2ccc(Br)cc12     inhibition      1.56
 8  O=C(Nc1ccc(N2CCN(C(=O)c3ccco3)CC2)cc1)c1cccnc1Cl     inhibition      1.86
 9  CCNC(=O)C1CCCc2c1[nH]c1ccc(Cl)cc21 (stereo not drawn)     inhibition      1.04
10  COc1ccc(-c2c3c(=O)n(C)c(=O)n(C)c3cn2Cc2cccnc2)cc1     inhibition      1.55
11        CN(C)CCCNC(=O)/C=C/c1ccc2c(c1)OCO2     inhibition      1.09
12  Cc1cc(-c2nnc(CCC(=O)NC(C)c3ccc(F)cc3)o2)no1 (stereo not drawn)     inhibition       1.8

---

assay: inhibitors of VEEV TC-83 cytopathic effect, confirmation, Vero cells (AID 588727); settings: VEEV TC-83 cytopathic effect inhibition, at 20 µM; stronger effect = higher value unless noted
Hit rate of the full screen: of about 350,000 compounds, about 450 (0.13%) were called active. Only a sample is shown. Measured potencies and affinities stand elsewhere.
Quantity kind: inhibition (%)

>>> df
                                   compound  quantity_kind  unit_label  measured
0  CC(=O)OC1CC[C@]2(C#N)[C@H]3CC[C@]4(C)[C@H](C5C=CC(=O)O5)CCC4(O)C3CCC2(O)C1 (some centres undefined)     inhibition           %      21.3
1  Cc1nnc(N2CCCC(C(=O)NCc3cccc(F)c3)C2)c2nn(-c3ccccc3)c(C)c12 (centres undefined)     inhibition           %       7.4
2  O=C(N[C@@H]1CCC(=O)N(CC[C@H](Sc2ccc(Br)cc2)c2ccccc2)CC1)OCc1ccccc1     inhibition           %      1.21
3  C[C@]12CCC3C(CC[C@H]4C[C@H](O)CC[C@]34C)C1CC(=O)[C@@H]2O (some centres undefined)     inhibition           %      2.26

---

experiment: inhibitors of VEEV TC-83 cytopathic effect, confirmation, Vero cells (AID 588727); conditions: VEEV TC-83 cytopathic effect inhibition, at 20 µM; stronger effect = higher value unless noted
Among all 350,000 compounds or so, about 450 (0.13%) were called active. Only a sample is shown. Potency and affinity values are given separately.
label 1 means recorded inhibition is 2% or above; label 0 means it is below 2%.

                                    compound    class
 0           O=C(Oc1ccc2ccccc2c1Cl)N1CCCCCC1  label 1
 1        Nc1ccc(C(=O)OCc2nc3ccccc3[nH]2)cc1  label 1
 2  Cc1ccc(-c2cc(C(=O)NCCCn3ccnc3)c3ccccc3n2)s1  label 1
 3       COc1ccc(/C=C/c2nc3ccccc3c(=O)o2)cc1  label 1
 4  Cc1ccc(NC(=O)CSc2ncn[nH]2)cc1S(=O)(=O)N1CCOCC1  label 0
 5  NC(=O)C1CCN(C(=O)c2cc(S(=O)(=O)N3CCOCC3)c(Cl)cc2Cl)CC1  label 0
 6  CNC(=O)C1=C(C)Nc2nc3ccccc3n2C1c1ccc(F)cc1 (stereo not drawn)  label 0
 7  COc1ccc(C)cc1NC(=O)C1CCN(C(=O)Cc2ccccc2)CC1  label 0
 8         O=C(COC(=O)COc1ccccc1)NCCc1ccccc1  label 0
 9     Cn1cc(CCC(=O)NCc2cccc(Cl)c2)c2ccccc21  label 0
10                Cc1ccc2nnnc(-c3ccccc3)c2c1  label 0
11  Cc1cn([C@H]2C[C@H](O)[C@@H](CNC(=O)[C@@H]3CCCN3Cc3ccccc3)O2)c(=O)[nH]c1=O  label 0
12             O=C(Oc1ccc2ccccc2c1Cl)N1CCCC1  label 1
13     O=c1nc(/C=C/c2ccc(O)c(O)c2)oc2ccccc12  label 0
14   COn1c(-c2ccccc2)nc2c1CCc1c-2no[n+]1[O-]  label 1
15  COc1ccccc1NC(=O)C1CCN(S(=O)(=O)c2cccc3nonc23)CC1  label 1
16  Cc1ccc2[nH]c3c(=O)n(CC(=O)Nc4ccccc4N4CCN(C)CC4)ncc3c2c1  label 0
17  COc1cc(/C=N/NC2=NS(=O)(=O)c3ccccc32)cc(OC)c1OC  label 0
18  Cc1ccc2oc(=O)c3cnn(CC(=O)N4CCN(c5ccccc5)CC4)c3c2c1  label 1
19  CCCN1C2CCCC1CC(NC(=O)c1ccc(Br)cc1)C2 (stereo not drawn)  label 0
20  Cc1cc(C)c[n+](CC(=O)c2ccc(C)c([N+](=O)[O-])c2)c1  label 0
21  COc1ccc(/C=N\NC(=O)c2ccccc2OC)cc1COc1ccccc1C  label 1
22  CCOC(=O)c1ccc(NC(=O)CSc2nnc(CNc3ccc(OC)cc3)n2C)cc1  label 0
